Values compiled from PubChem BioAssay (NCI).

So I've got a bunch of molecules here, and I need their TGI values.
- Test system: A498 renal
- Protocol details: NCI tumour cell line growth inhibition, 48 h

Some solved entries appear below for comparison.
- CCOC(=O)c1ncn2c1[nH]c(=S)c1ccccc12: > 100 µM
- N#Cc1cccc2c1Sc1ccccc1N2: 58.3 µM
- N#CC(C#N)=c1ccc(=C2NCC3CCCN23)cc1 (stereo not drawn): > 100 µM
- COc1ccc2c(c1)CC[C@@H]1[C@@H]2CC[C@]2(C)C(=O)/C(=C/c3ccc(N(C)C)cc3)C[C@@H]12: > 100 µM
- CC[C@@]12CCCN3CC[C@]4(c5cccc(OC)c5N(C(C)=O)[C@@H]4CC1)[C@H]32: > 100 µM

Can you give me TGI for all of these, one by one?
1. COc1cccc(-c2nc3ccccc3c(=O)[nH]2)c1
2. C[C@@H](CS(C)(=O)=O)Nc1ncc2cc(Oc3ccc(F)cc3F)c(=O)n(C)c2n1
3. O=C(/C=C/c1ccccc1Cl)c1ccc(Cl)c(Cl)c1

Response line:
51.6 µM
> 25 µM
33.9 µM

###

- Test system: RXF 393 renal
- Protocol details: NCI tumour cell line growth inhibition, 48 h
Property: TGI

Some solved entries appear below for comparison.
- CC1OC(OC2C(O[C@H]3CC[C@@H]4C(=CC[C@@H]5[C@@]4(C)C(=O)C[C@]4(C)[C@@H]([C@H](C)CC[C@@H](O)C(C)(C)O)CC[C@@]54C)C3(C)C)OC(CO)C(O)C2O)C(O)C(O)C1O (stereo partly drawn): > 100 µM
- Cc1cc(=O)[nH]c2cc3oc4ccccc4c3cc12: > 100 µM

Would you kindly look at the next entry?
Prompt line: Returns the measured TGI for the input compound. Input: C=CCC1(O)CC(n2cc(C)c(=O)[nH]c2=O)OC1CO[Si](C)(C)C(C)(C)C (stereo not drawn)
Response line: > 100 µM

###

So I've got a bunch of molecules here, and I need their TGI values.
- Tested on: BT-549 breast
- Protocol details: NCI tumour cell line growth inhibition, 48 h

- CNC(=O)c1ccccc1Nc1nc(Nc2ccc(N3CCOCC3)cc2OC)ncc1Cl: > 39.1 µM
- Cc1ccc(Cc2n[nH]c(=O)[nH]2)cc1: > 100 µM
- CN1Cc2ccccc2S(=O)(=O)n2cccc2C1=O: > 100 µM

Can you give me TGI for all of these, one by one?
1. Cc1cccc2oc3c(CC(=O)O)cccc3c(=O)c12
2. NC(=O)c1ccc(C(=O)Nc2ccc([As](=O)(O)O)cc2)cc1
3. C[C@@H](CS(C)(=O)=O)Nc1ncc2cc(Oc3ccc(F)cc3F)c(=O)n(C)c2n1
4. Cc1cc(=O)n2[nH]c(-c3ccc(C(C)(C)C)cc3)cc2n1
5. CCCCCCCCSC1=CC(=O)c2nc3ccccc3c3ccnc1c23
6. COc1cc2c(cc1OC)[C@@H]1[C@H](C#N)C(=O)C(C)(C)N1CC2
7. Oc1ccc(Cl)cc1-c1cc(-c2ccccc2Cl)[nH]n1

Response line:
1: > 100 µM; 2: > 100 µM; 3: > 25 µM; 4: > 100 µM; 5: > 100 µM; 6: > 100 µM; 7: > 100 µM

###

- Test system: HCT-15 colon
- Protocol details: NCI tumour cell line growth inhibition, 48 h
Property: TGI

Some solved entries appear below for comparison.
* CN(C)c1ccc(-c2cc(-c3ccc(Nc4nc(Nc5ccc(Cl)cc5)nc(Nc5ccc(Cl)cc5)n4)cc3)no2)cc1 | > 100 µM
* COc1cc(-c2ccc(Br)[nH]2)[nH]c1C=NCC(C)C | 3.15 µM
* O=C(NCCNc1nccc(-c2c(-c3cccc(O)c3)nc3sccn23)n1)c1ccccc1O | > 46.8 µM
* NC(=O)C(=CNC(N)=S)C(N)=O | > 100 µM
* N/C(=N\N=C/c1ccc(O)c(O)c1O)NO | 34.5 µM
* CC(=O)NC1=C(NCC(C)(C)C)C(=O)c2ccccc2C1=O | > 100 µM
* CC(C)=C1C(=O)C[C@]2(C)C[C@H]3O[C@]3(C)CC[C@@H]3O[C@@]3(C)CC[C@@H]12 | > 50 µM
* CCOC(=O)COc1cccc2c1C(=O)CCO2 | > 100 µM

Can you give me TGI for all of these, one by one?
1. Cc1cnc(NC(=O)C(Cc2ccccc2)NC(=O)c2ccccc2)s1 (stereo not drawn)
2. O=C1NC(N/N=C/C(O)C(O)C(O)C(O)CO)=N/C1=C\c1ccco1 (stereo not drawn)
3. O=C(O)CCSC(=O)Nc1cccc(F)c1

Response line:
8.9 µM
> 100 µM
> 100 µM

Can you give me TGI for all of these, one by one?
1. NC(CCCCCCCCCCP(=O)(O)O)C(=O)O (stereo not drawn)
2. CCN(CC)CC(C(=O)Nc1c(C)cccc1C)/C(C)=N\NC(=O)C[N+](C)(C)C (stereo not drawn)

Response line:
1. > 100 µM
2. > 100 µM
